- TARGET_DESC: human GPR119 (Homo sapiens, UniProt Q8TDV5)
- Construct: expression vector for human GPR119 cDNA (Acc. No. NP_848566); expressed in transfected cells
- Sequence (Q8TDV5 1-335): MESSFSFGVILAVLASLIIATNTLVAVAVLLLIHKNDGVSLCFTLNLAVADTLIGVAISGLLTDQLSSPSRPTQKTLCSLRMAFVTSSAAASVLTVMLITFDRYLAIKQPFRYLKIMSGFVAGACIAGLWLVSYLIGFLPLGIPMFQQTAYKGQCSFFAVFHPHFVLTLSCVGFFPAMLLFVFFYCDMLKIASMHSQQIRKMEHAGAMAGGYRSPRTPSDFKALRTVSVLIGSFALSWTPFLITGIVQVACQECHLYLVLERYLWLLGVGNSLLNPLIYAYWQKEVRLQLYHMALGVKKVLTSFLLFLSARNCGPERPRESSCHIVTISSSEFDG
- MEASUREMENT_PROTOCOL: AlphaScreen cAMP assay in Min-6/hGPR119 cells (activation of GPR119, intracellular cAMP)
- Assay type: cell-based
- SETUP_CONDITIONS: MIN6 cells stably transfected with human GPR119; cAMP by AlphaScreen after 45 minutes incubation at room temperature
OBSERVABLE: EC50 (nM)

- CC(C)(C)OC(=O)N1CCC(C2Cc3cc(-c4cncnc4)ncc3O2)CC1 (stereo not shown): 190
- CC(C)OC(=O)N1CCC(C2Cc3cc(-c4ccc(CC(=O)N5CCC(O)C5)cc4)ccc3O2)CC1 (stereo not shown): 154

[a] CC(C)OC(=O)N1CCC([C@]2(C)Cc3cc(C4=CCN(S(C)(=O)=O)CC4)ncc3O2)CC1
[b] CN(C1CCN(c2cc3c(cn2)OC(C2CCN(C(=O)OC(C)(C)C)CC2)C3)CC1)S(C)(=O)=O (stereo not shown)
*Q* Of the pair a and b , name the member with the lesser recorded EC50. # reply format: chosen label
*A* a

----------
- TARGET_DESC: human GPR119 (Homo sapiens, UniProt Q8TDV5)
- Construct: expression vector for human GPR119 cDNA (Acc. No. NP_848566)
- MEASUREMENT_PROTOCOL: AlphaScreen cAMP assay in Min-6/hGPR119 cells (activation of GPR119, intracellular cAMP)
- SETUP_CONDITIONS: MIN6 cells stably transfected with human GPR119; cAMP by AlphaScreen after 45 minutes incubation at room temperature
pEC50: −log10 of the molar value.
OBSERVABLE: pEC50

Example results:
- CC(C)OC(=O)N1CCC([C@]2(C)Cc3cc(-c4ccc(S(C)(=O)=O)cc4)ncc3O2)CC1: 7.96
- CC(C)(C)OC(=O)N1CCC(C2Cc3cc(C4CCN(S(C)(=O)=O)CC4)ncc3O2)CC1 (stereo not shown): 7.49
- CC(C)(C)OC(=O)N1CCC(C2Cc3nc(-c4ccc(S(C)(=O)=O)cc4)cnc3O2)CC1 (stereo not shown): 6.60
- CC(C)(C)OC(=O)N1CCC(C2(C)Cc3cc(C4=CCN(S(C)(=O)=O)CC4)ncc3O2)CC1 (stereo not shown): 7.82
- CC(C)OC(=O)N1CCC(C2Cc3cc(-c4ccc(CS(C)(=O)=O)cc4)ncc3O2)CC1 (stereo not shown): 7.44
- CC(=O)Nc1nc(C)c(-c2ccc3c(c2)CC(C2CCN(C(=O)OC(C)C)CC2)O3)s1 (stereo not shown): 5.92

[a] CC(C)OC(=O)N1CCC(C2Cc3cc(-c4ccc(C(F)(F)F)nc4)ccc3O2)CC1 (stereo not shown)
[b] CC(C)OC(=O)N1CCC(C2Cc3cc(-c4ccc(CC(=O)NCC#N)cc4)ccc3O2)CC1 (stereo not shown)
[c] CC(C)OC(=O)N1CCC(C2Cc3cc(-c4cnn(C)c4)ccc3O2)CC1 (stereo not shown)
*Q* Endpoint returns the given compounds ordered by ascending pEC50. // ordering of labels required in reply
*A* c, a, b

[I] CC(C)OC(=O)N1CCC(C2Cc3cc(-c4ccc(C(=O)N5CC(F)(F)C5)cc4)ccc3O2)CC1 (stereo not shown)
[II] Cn1ccc(-c2cc3c(cn2)OC(C2CCN(C(=O)OC(C)(C)C)CC2)C3)cc1=O (stereo not shown)
*Q* Lab note: check whether I or II shows the higher recorded pEC50. # reply format: chosen label
*A* I
(I: 7.42, II: 6.16)

[I] CC1(OC(=O)N2CCC(C3Cc4cc(-c5ccc(S(C)(=O)=O)cc5)ccc4O3)CC2)CC1 (stereo not shown)
[II] CC(C)(C)OC(=O)N1CCC(C2Cc3cc(-c4ccc(CS(C)(=O)=O)cc4F)ncc3O2)CC1 (single isomer, unassigned) [Example 75]
*Q* Lab note: check whether I or II shows the higher recorded pEC50. # reply format: chosen label
*A* II
(II: 7.85, I: 7.34)

----------
- TARGET_DESC: human GPR119 (Homo sapiens)
- Construct: expression vector for human GPR119 cDNA (Acc. No. NP_848566)
- MEASUREMENT_PROTOCOL: AlphaScreen cAMP assay in Min-6/hGPR119 cells (activation of GPR119, intracellular cAMP)
- SETUP_CONDITIONS: MIN6 cells stably transfected with human GPR119; cAMP by AlphaScreen after 45 minutes incubation at room temperature
OBSERVABLE: EC50 (nM)

Example results:
* CC(C)(C)OC(=O)N1CCC(C2Cc3cc(-c4ccnnc4)ccc3O2)CC1 (stereo not shown) [Example 50] | 161
* CC(C)OC(=O)N1CCC(C2Cc3cc(-c4ccc(C(=O)NCC#N)cc4)ccc3O2)CC1 (stereo not shown) [Example 133] | 104

[1] CC(C)(C)OC(=O)N1CCC([C@]2(C)Cc3cc(-c4ccc(S(C)(=O)=O)cc4)ncc3O2)CC1 [Example 83]
[2] CC(C)(C)OC(=O)N1CCC(C2Cc3cc(-c4ccc(S(C)(=O)=O)c(F)c4)ncc3O2)CC1 (stereo not shown) [Example 34]
*Q* Lab note: check whether 1 or 2 shows the higher recorded EC50. # reply format: chosen label
*A* 2
(2: 9 nM, 1: 4 nM)

----------
- TARGET_DESC: human GPR119 (Homo sapiens)
- Construct: expression vector for human GPR119 cDNA (Acc. No. NP_848566)
- MEASUREMENT_PROTOCOL: AlphaScreen cAMP assay in Min-6/hGPR119 cells (activation of GPR119, intracellular cAMP)
- SETUP_CONDITIONS: MIN6 cells stably transfected with human GPR119; cAMP by AlphaScreen after 45 minutes incubation at room temperature
OBSERVABLE: EC50 (nM)

* CC(C)OC(=O)N1CCC(C2Cc3cc(-c4ccc(CC#N)cc4)ccc3O2)CC1 (stereo not shown) [Example 105] | 99

[a] CC(C)(C)OC(=O)N1CCC(C2Cc3cc(-c4ccncc4C#N)ncc3O2)CC1 (stereo not shown) [Example 59]
[b] Cc1cc(C#N)cnc1-c1ccc2c(c1)CC(C1CCN(C(=O)OC(C)C)CC1)O2 (stereo not shown) [Example 8]
[c] CC(C)OC(=O)N1CCC(C2Cc3cc(-c4cnc(NC(=O)C(C)(C)C)s4)ccc3O2)CC1 (stereo not shown) [Example 173]
*Q* Please list the entries, largest EC50 first. // ordering of labels required in reply
*A* c, b, a

----------
- TARGET_DESC: human GPR119 (Homo sapiens, UniProt Q8TDV5)
- Construct: expression vector for human GPR119 cDNA (Acc. No. NP_848566)
- Sequence (Q8TDV5 1-335): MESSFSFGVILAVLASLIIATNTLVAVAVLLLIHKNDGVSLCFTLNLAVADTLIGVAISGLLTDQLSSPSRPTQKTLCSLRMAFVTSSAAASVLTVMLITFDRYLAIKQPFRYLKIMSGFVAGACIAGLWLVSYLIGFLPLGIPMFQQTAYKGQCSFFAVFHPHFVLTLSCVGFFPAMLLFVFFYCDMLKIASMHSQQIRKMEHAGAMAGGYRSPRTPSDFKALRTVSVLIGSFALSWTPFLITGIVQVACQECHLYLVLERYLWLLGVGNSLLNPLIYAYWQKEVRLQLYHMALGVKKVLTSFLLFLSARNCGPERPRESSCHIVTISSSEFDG
- MEASUREMENT_PROTOCOL: AlphaScreen cAMP assay in Min-6/hGPR119 cells (activation of GPR119, intracellular cAMP)
- SETUP_CONDITIONS: MIN6 cells stably transfected with human GPR119; cAMP by AlphaScreen after 45 minutes incubation at room temperature
pEC50: −log10 of the molar value.
OBSERVABLE: pEC50

- COc1ncc(-c2ccc3c(c2)CC(C2CCN(C(=O)OC(C)C)CC2)O3)cn1 (stereo not shown) [Example 108]: 5.70

[P] COc1cnnc(-c2ccc3c(c2)CC(C2CCN(C(=O)OC(C)C)CC2)O3)c1 (stereo not shown) [Example 167]
[Q] CC(C)OC(=O)N1CCC(C2Cc3cc(-c4ccc(C#N)c(F)c4)ccc3O2)CC1 (stereo not shown) [Example 111]
[R] CS(=O)(=O)N1CC=C(c2cc3c(cn2)OC(C2CCN(C(=O)OC4CCC4)CC2)C3)CC1 (stereo not shown) [Example 96]
*Q* Endpoint returns the given compounds ordered by ascending pEC50. // ordering of labels required in reply
*A* P, Q, R
